# experimentNotes: Drug level in lung transplant recipient invasive aspergillosis patient plasma at 150 mg, iv QD for 4 consecutive days measured after 3 hrs post last dose by HPLC
# Assay type: ADME, organism-based
# experimentalParameters: human, read-out: Drug uptake
Numbered stars: 1 amine (or outer) side, 2 acyl side, 3 side chain; on linkers, the order of the positions; unused ones are H or OH. Bridge positions count the residues as written; N and C are the ends. Square brackets hold non-standard residues; d marks the D form. Peptide text beside a SMILES is read from it. * marks the point of attachment. hTyr(3S-OH,4S-OH,3'-OSO3H) = N[C@H](C(=O)O)[C@H](O)[C@@H](O)c1ccc(O)c(OS(=O)(=O)O)c1; Orn(4R-OH,5R-OH) = O=C([C@H](C[C@@H](O)[C@@H](O)N[*:3])N[*:1])[*:2]; Pro(3S-OH,4S-Me) = C[C@H]1CN[C@H](C(=O)O)[C@H]1O; X1 = CCCCCOc1ccc(-c2cc(-c3ccc(C(=O)*)cc3)no2)cc1; Gln(3R-OH) = NC(=O)C[C@@H](O)[C@H](N)C(=O)O; Hyp = O=C(O)[C@@H]1C[C@@H](O)CN1
endpointLabel: concentration at 3 h (ng/mL)

[[record]]
compound = "CCCCCOc1ccc(-c2cc(-c3ccc(C(=O)N[C@H]4C[C@@H](O)[C@@H](O)NC(=O)[C@@H]5[C@@H](O)[C@@H](C)CN5C(=O)[C@H]([C@H](O)CC(N)=O)NC(=O)[C@H]([C@H](O)[C@@H](O)c5ccc(O)c(OS(=O)(=O)O)c5)NC(=O)[C@@H]5C[C@@H](O)CN5C(=O)[C@H]([C@@H](C)O)NC4=O)cc3)no2)cc1 [MICAFUNGIN] (X1-[Orn(4R-OH,5R-OH)]T[Hyp][hTyr(3S-OH,4S-OH,3'-OSO3H)][Gln(3R-OH)][Pro(3S-OH,4S-Me)]; lactam 1-C)"
measured = 4930


---

# experimentNotes: Ratio of drug level in alveolar cell to plasma of lung transplant recipient invasive aspergillosis patient at 150 mg, iv QD for 4 consecutive days measured after 24 hrs post last dose
# Format: ADME, organism-based, Pneumocyte
# experimentalParameters: human, alveolar cells / plasma
Numbered stars: 1 amine (or outer) side, 2 acyl side, 3 side chain; on linkers, the order of the positions; unused ones are H or OH. Bridge positions count the residues as written; N and C are the ends. Square brackets hold non-standard residues; d marks the D form. Peptide text beside a SMILES is read from it. * marks the point of attachment. hTyr(3S-OH,4S-OH,3'-OSO3H) = N[C@H](C(=O)O)[C@H](O)[C@@H](O)c1ccc(O)c(OS(=O)(=O)O)c1; Orn(4R-OH,5R-OH) = O=C([C@H](C[C@@H](O)[C@@H](O)N[*:3])N[*:1])[*:2]; Pro(3S-OH,4S-Me) = C[C@H]1CN[C@H](C(=O)O)[C@H]1O; X1 = CCCCCOc1ccc(-c2cc(-c3ccc(C(=O)*)cc3)no2)cc1; Gln(3R-OH) = NC(=O)C[C@@H](O)[C@H](N)C(=O)O; Hyp = O=C(O)[C@@H]1C[C@@H](O)CN1
endpointLabel: Kp at 24 h

[[record]]
molecule = "CCCCCOc1ccc(-c2cc(-c3ccc(C(=O)N[C@H]4C[C@@H](O)[C@@H](O)NC(=O)[C@@H]5[C@@H](O)[C@@H](C)CN5C(=O)[C@H]([C@H](O)CC(N)=O)NC(=O)[C@H]([C@H](O)[C@@H](O)c5ccc(O)c(OS(=O)(=O)O)c5)NC(=O)[C@@H]5C[C@@H](O)CN5C(=O)[C@H]([C@@H](C)O)NC4=O)cc3)no2)cc1 [MICAFUNGIN] (X1-[Orn(4R-OH,5R-OH)]T[Hyp][hTyr(3S-OH,4S-OH,3'-OSO3H)][Gln(3R-OH)][Pro(3S-OH,4S-Me)]; lactam 1-C)"
measured = 6.22


---

# experimentNotes: Cmax in lung transplant recipient invasive aspergillosis patient plasma at 150 mg, iv QD for 4 consecutive days by HPLC
# Type: ADME, organism-based
# Parameters: dose 150 mg, route intravenous
# experimentalParameters: human
Numbered stars: 1 amine (or outer) side, 2 acyl side, 3 side chain; on linkers, the order of the positions; unused ones are H or OH. Bridge positions count the residues as written; N and C are the ends. Square brackets hold non-standard residues; d marks the D form. Peptide text beside a SMILES is read from it. * marks the point of attachment. hTyr(3S-OH,4S-OH,3'-OSO3H) = N[C@H](C(=O)O)[C@H](O)[C@@H](O)c1ccc(O)c(OS(=O)(=O)O)c1; Orn(4R-OH,5R-OH) = O=C([C@H](C[C@@H](O)[C@@H](O)N[*:3])N[*:1])[*:2]; Pro(3S-OH,4S-Me) = C[C@H]1CN[C@H](C(=O)O)[C@H]1O; X1 = CCCCCOc1ccc(-c2cc(-c3ccc(C(=O)*)cc3)no2)cc1; Gln(3R-OH) = NC(=O)C[C@@H](O)[C@H](N)C(=O)O; Hyp = O=C(O)[C@@H]1C[C@@H](O)CN1
endpointLabel: Cmax (ng/mL)

[[record]]
compound = "CCCCCOc1ccc(-c2cc(-c3ccc(C(=O)N[C@H]4C[C@@H](O)[C@@H](O)NC(=O)[C@@H]5[C@@H](O)[C@@H](C)CN5C(=O)[C@H]([C@H](O)CC(N)=O)NC(=O)[C@H]([C@H](O)[C@@H](O)c5ccc(O)c(OS(=O)(=O)O)c5)NC(=O)[C@@H]5C[C@@H](O)CN5C(=O)[C@H]([C@@H](C)O)NC4=O)cc3)no2)cc1 [MICAFUNGIN] (X1-[Orn(4R-OH,5R-OH)]T[Hyp][hTyr(3S-OH,4S-OH,3'-OSO3H)][Gln(3R-OH)][Pro(3S-OH,4S-Me)]; lactam 1-C)"
scaleunit = "ng/mL"
measured = 4930


---

# experimentNotes: Drug level in lung transplant recipient invasive aspergillosis patient plasma at 150 mg, iv measured after 5 hrs post last dose by HPLC
# experimentalParameters: human, read-out: Drug uptake
Numbered stars: 1 amine (or outer) side, 2 acyl side, 3 side chain; on linkers, the order of the positions; unused ones are H or OH. Bridge positions count the residues as written; N and C are the ends. Square brackets hold non-standard residues; d marks the D form. Peptide text beside a SMILES is read from it. * marks the point of attachment. hTyr(3S-OH,4S-OH,3'-OSO3H) = N[C@H](C(=O)O)[C@H](O)[C@@H](O)c1ccc(O)c(OS(=O)(=O)O)c1; Orn(4R-OH,5R-OH) = O=C([C@H](C[C@@H](O)[C@@H](O)N[*:3])N[*:1])[*:2]; Pro(3S-OH,4S-Me) = C[C@H]1CN[C@H](C(=O)O)[C@H]1O; X1 = CCCCCOc1ccc(-c2cc(-c3ccc(C(=O)*)cc3)no2)cc1; Gln(3R-OH) = NC(=O)C[C@@H](O)[C@H](N)C(=O)O; Hyp = O=C(O)[C@@H]1C[C@@H](O)CN1
endpointLabel: concentration at 5 h (ng/mL)

[[record]]
compound = "CCCCCOc1ccc(-c2cc(-c3ccc(C(=O)N[C@H]4C[C@@H](O)[C@@H](O)NC(=O)[C@@H]5[C@@H](O)[C@@H](C)CN5C(=O)[C@H]([C@H](O)CC(N)=O)NC(=O)[C@H]([C@H](O)[C@@H](O)c5ccc(O)c(OS(=O)(=O)O)c5)NC(=O)[C@@H]5C[C@@H](O)CN5C(=O)[C@H]([C@@H](C)O)NC4=O)cc3)no2)cc1 [MICAFUNGIN] (X1-[Orn(4R-OH,5R-OH)]T[Hyp][hTyr(3S-OH,4S-OH,3'-OSO3H)][Gln(3R-OH)][Pro(3S-OH,4S-Me)]; lactam 1-C)"
endpointlabel = "concentration at 5 h"
scaleunit = "ng/mL"
measured = 4810


---

# experimentNotes: Elimination half life in lung transplant recipient invasive aspergillosis patient at 150 mg, iv QD for 4 consecutive days by HPLC
# Type: ADME, organism-based
# experimentalParameters: human, in vivo, read-out: beta t1/2 (converted)
Numbered stars: 1 amine (or outer) side, 2 acyl side, 3 side chain; on linkers, the order of the positions; unused ones are H or OH. Bridge positions count the residues as written; N and C are the ends. Square brackets hold non-standard residues; d marks the D form. Peptide text beside a SMILES is read from it. * marks the point of attachment. hTyr(3S-OH,4S-OH,3'-OSO3H) = N[C@H](C(=O)O)[C@H](O)[C@@H](O)c1ccc(O)c(OS(=O)(=O)O)c1; Orn(4R-OH,5R-OH) = O=C([C@H](C[C@@H](O)[C@@H](O)N[*:3])N[*:1])[*:2]; Pro(3S-OH,4S-Me) = C[C@H]1CN[C@H](C(=O)O)[C@H]1O; X1 = CCCCCOc1ccc(-c2cc(-c3ccc(C(=O)*)cc3)no2)cc1; Gln(3R-OH) = NC(=O)C[C@@H](O)[C@H](N)C(=O)O; Hyp = O=C(O)[C@@H]1C[C@@H](O)CN1
endpointLabel: half-life

[[record]]
molecule = "CCCCCOc1ccc(-c2cc(-c3ccc(C(=O)N[C@H]4C[C@@H](O)[C@@H](O)NC(=O)[C@@H]5[C@@H](O)[C@@H](C)CN5C(=O)[C@H]([C@H](O)CC(N)=O)NC(=O)[C@H]([C@H](O)[C@@H](O)c5ccc(O)c(OS(=O)(=O)O)c5)NC(=O)[C@@H]5C[C@@H](O)CN5C(=O)[C@H]([C@@H](C)O)NC4=O)cc3)no2)cc1 [MICAFUNGIN] (X1-[Orn(4R-OH,5R-OH)]T[Hyp][hTyr(3S-OH,4S-OH,3'-OSO3H)][Gln(3R-OH)][Pro(3S-OH,4S-Me)]; lactam 1-C)"
measured = "12.1 h"

